I'd be grateful if you could share measured GI50 for these entries.
Test system: SF-295
Assay: NCI tumour cell line growth inhibition, 48 h
Active and inactive are the calls of the source. Cut-off read from the data, not from the text of the source: active = GI50 up to about 1.1 µM and inactive = higher.

Solved entries:
compound: CN(/N=C/c1ccccn1)C1=NCCCCN1
GI50: > 100 µM (inactive)
--
compound: COc1ccc2oc(C(=O)O)c3c2c1CCC3
GI50: > 100 µM (inactive)
--
compound: COC1=C(C)C(=O)C2C(C1=O)C(c1ccc(OC)c(OC)c1)[C@H]2C (stereo partly specified)
GI50: > 100 µM (inactive)
--
compound: C[N+]1(C)[C@@H]2CC[C@H]1C[C@@H](OC(=O)C(CO)c1ccccc1)C2 (stereo partly specified) [ATROPINE METHYLBROMIDE]
GI50: > 100 µM (inactive)
--
compound: O=C1OC(=O)C([Se]c2ccccc2)=C1[Se]c1ccccc1
GI50: > 100 µM (inactive)
--
compound: Cc1[nH]c2[nH]c(=S)nc(NC(N)=S)c2c1Cc1ccccc1
GI50: 35.2 µM (inactive)

Hi! Can you tell me GI50 for each of these compounds?
1. O=[N+]([O-])c1cc2ccc1OCc1cccc(n1)COc1ccc(cc1[N+](=O)[O-])/C=N\CCCCCCCC/N=C\2
2. CCOP(=O)(OCC)/C(C#N)=C/c1cn(C)cn1
3. C/C(CC(=O)Nc1cc(C)ccc1C)=N\NC(=O)c1ccncc1
4. C/C(=N\N)C(CN1CCOCC1)C(c1ccccc1)c1c(O)c2ccccc2oc1=O (stereo unspecified)
5. FC(F)(F)c1cccc(C2SCc3nc4ccccc4n32)c1 (stereo unspecified)

1. > 100 µM (inactive)
2. > 100 µM (inactive)
3. > 100 µM (inactive)
4. > 100 µM (inactive)
5. 33.9 µM (inactive)

====

Tested on: MOLT-4
Experiment: NCI tumour cell line growth inhibition, 48 h
The source made the active and inactive calls. Rule as the data show it: active = GI50 up to about 1.1 µM and inactive = higher.
Pick from 1 = active, -1 = inactive when you respond.

molecule: COc1cc2c(cc1OCCCCOc1cc3nc(C)nc(Cl)c3cc1OC)N=C[C@@H]1CCCN1C2=O
assayed_target: MOLT-4
category_label: -1
//
molecule: COc1ccc(P2(=S)Oc3ccc(C(c4ccccc4)(c4ccccc4)c4ccccc4)cc3O2)cc1 (stereo not drawn)
assayed_target: MOLT-4
category_label: -1

Outcome logged for C[N+]1(C)[C@@H]2CC[C@H]1C[C@@H](OC(=O)C(CO)c1ccccc1)C2 (stereo partly drawn) [ATROPINE METHYLBROMIDE] in this assay:
-1

Outcome logged for C=C(C)[C@H]1C[C@@H]2O[C@@](O)(/C(C)=C\C(=O)/C=C(/C)C[C@H]3OC(=O)[C@@]24O[C@H]34)[C@@H]1O in this assay:
-1

====

Test system: T47D
Experiment: NCI tumour cell line growth inhibition, 48 h
Activity calls are given as the source filed them. Cut-off read from the data, not from the text of the source: active = GI50 up to about 1.1 µM and inactive = higher.
Pick from true (1) (active), false (0) (inactive) when you respond.

Example entries begin here.
compound: C/C(=N\N)C(CN1CCOCC1)C(c1ccccc1)c1c(O)c2ccccc2oc1=O (stereo not drawn)
category_label: false (0)

compound: O=C1CSC(c2ccccc2O)N1c1ccc(-c2ccc(-n3c(-c4ccccc4)nc4ccccc4c3=O)cc2)cc1 (stereo not drawn)
category_label: false (0)

Outcome logged for COc1cccc2c1C(=O)c1c(O)c3c(c(O)c1C2=O)CC(O)(C(=O)CO)CC3OC1CC(N2CCOCC2C#N)C(O)C(C)O1 (stereo not drawn) in this assay:
true (1)

Outcome logged for Nc1ccc(S(=O)(=O)c2ccc(/N=[N+](\[O-])c3ccc(S(=O)(=O)c4ccc(N)cc4)cc3)cc2)cc1 in this assay:
false (0)

Outcome logged for Cc1cc2nc(N3C(=O)/C(=C/c4ccc(Cl)cc4)N=C3c3ccccc3)sc2cc1C in this assay:
false (0)

Outcome logged for O=C/C(=C(/Br)I)c1ccccc1 in this assay:
false (0)

Outcome logged for C=C(C)C1Cc2c(cc(O)c3c(=O)c4c(oc23)C(O)Oc2cc(OC)c(OC)cc2-4)O1 (stereo not drawn) in this assay:
false (0)

Outcome logged for CCSC1=N/C(=C\c2ccco2)C(NN)=N1 in this assay:
false (0)
